testName: Selectivity index, ratio of CC50 for human HepG2 cells in presence of 1% FBS to IC50 for Plasmodium knowlesi YH1
Type: toxicity
experimentalParameters: read-out: Ratio IC50
Property: selectivity ratio; scope: individual compounds
Output: the number by itself.

Input: Look at this compound and give its reported selectivity ratio. Clc1cccc2c1-c1ccccc1[I+]2
Output: 8.5

---
Input: May I ask what selectivity ratio has been recorded for N#Cc1ccc2c(c1)-c1ccccc1[I+]2 ?
Output: 232

Input: Look up selectivity ratio: Fc1cccc2c1-c1ccccc1[I+]2
Output: 59

* * *

testName: Selectivity index, ratio of CC50 for human HepG2 cells in presence of 10% FBS to IC50 for drug-resistant GFP-fused Plasmodium falciparum D10
Type: toxicity
experimentalParameters: read-out: Ratio IC50
measureName: selectivity ratio

Input: Consider the compound FC(F)(F)c1cccc2c1-c1ccccc1[I+]2 and give its measured selectivity ratio.
Output: 0.7

* * *

Measured selectivity ratio, listed per entry for reference.
testName: Selectivity index, ratio of CC50 for human HepG2 cells in presence of 1% FBS to MIC for methicillin-resistant Staphylococcus aureus ATCC 43300
Format: toxicity
experimentalParameters: read-out: Selectivity Index
Answer as a number with no unit attached.

The following molecules have reported results that may help.
Input: I would be grateful if you could share the reported selectivity ratio for COc1ccc2c(c1)-c1ccccc1[I+]2 .
Output: 1.5

Input: Which selectivity ratio is reported for this molecule? COc1ccc2c(c1)[I+]c1ccccc1-2
Output: 1.6

Input: Data request, read-out selectivity ratio, for COc1cccc2c1-c1ccccc1[I+]2
Output: 1.1

Input: Give the measured selectivity ratio of c1ccc2c(c1)[I+]c1c-2ccc2ccccc12 .
Output: 0.34

Input: Recorded selectivity ratio for N#Cc1ccc2c(c1)-c1ccccc1[I+]2 , please?
Output: 20

New cases:
Input: selectivity ratio lookup needed for Clc1ccc2c(c1)[I+]c1ccccc1-2 , thanks.
Output: 0.51

Input: Recorded selectivity ratio for Fc1ccc2c(c1)-c1ccccc1[I+]2 , please?
Output: 2.7

Input: Name the reported selectivity ratio value associated with the molecule c1ccc2c(c1)[I+]c1ccccc1-2
Output: 6.3

* * *

testName: Selectivity index, ratio of CC50 for human HepG2 cells in presence of 1% FBS to IC50 for CQ-sensitive GFP-fused Plasmodium falciparum D10
Type: toxicity
experimentalParameters: read-out: Ratio IC50
selectivity ratio values, listed per item

Please review the entries below; each comes with its answer.
Input: Data request, read-out selectivity ratio, for Clc1ccc2c(c1)[I+]c1ccccc1-2
Output: 15

Input: Form field: reported selectivity ratio of COc1ccc(Cl)c2c1[I+]c1ccccc1-2
Output: 1.2

Input: Form field: reported selectivity ratio of Fc1ccc2c(c1)-c1ccccc1[I+]2
Output: 125

Input: Tell me the measured selectivity ratio of Clc1cccc2c1[I+]c1cccc(Cl)c1-2 , please.
Output: 0.23

Input: Field request: selectivity ratio | item: Cc1ccc2c(c1)[I+]c1ccccc1-2.O=S(=O)([O-])C(F)(F)F
Output: 15.8

Input: # input compound: Fc1cccc2c1-c1c(F)cccc1[I+]2 ; wanted: its selectivity ratio
Output: 0.11

Input: Which selectivity ratio value is on record for COc1cccc2c1-c1ccccc1[I+]2 ?
Output: 225

Input: If you can, please state the reported selectivity ratio value of Fc1ccc2c(c1)[I+]c1ccccc1-2 .
Output: 105

In the following, a different compound is considered.
Input: Recorded selectivity ratio of c1ccc2c(c1)[I+]c1ccccc1-2 , please.
Output: 221

Origin of measurements: ChEMBL document CHEMBL4145448
